- System: HCT116 MTAP null cells
- method.summary: HCT116 MTAP null cell line proliferation (CellTiter-Glo cell viability, 6 days)
- Format: cell-based
- particulars: HCT116-MTAP null, 144 h, HCT116 MTAP null cells, 6 days of treatment, CellTiter-Glo cell viability; read-out: HCT-116 MTAP null IC50
experimental.endpoint: IC50 (nM)
All answers are understood in nM, so give the number only.

Previously resolved entries follow.
| compound | scale.unit | IC50 |
| --- | --- | --- |
| Nc1nc2ccc(C(=O)N3CCOCC3c3cccc(Br)c3)cc2c2c1COC2 (racemic) | nM | 363 |
| Nc1nc2cnc(C(=O)N3CCOC[C@@H]3c3ccc(C(F)(F)F)cc3)cc2c2cncnc12 | nM | 810 |
| C[C@H]1CN(C(=O)c2ccc3nc(N)c4c(c3c2)COC4)[C@H](c2ccc(OC(F)(F)F)cc2)CO1 (single isomer, unassigned) | nM | 82 |
| COC(=O)[C@@H]1CN(C(=O)c2cc3c4c(c(N)nc3cc2F)COC4)C[C@H]1c1ccc(C(F)(F)F)cc1 (single isomer, unassigned) | nM | 92 |

[in] So what IC50 did C[C@@H]1OCc2c1c(N)nc1cnc(C(=O)N3CCOC[C@H]3c3ccc(F)c(C(F)(F)F)c3)cc21 (racemic) get with HCT116 MTAP null cells?
[out] 4060

[in] For HCT116 MTAP null cells, provide IC50 of Nc1nc2cnc(C(=O)N3CCOC[C@@H]3c3ccc(C(F)(F)F)cc3)cc2c2cnccc12 please.
[out] 37

[in] Under HCT116 MTAP null cells: IC50 value of Nc1nc2cc(Cl)c(C(=O)N3CCOCC3c3ccc(F)c(OC(F)(F)F)c3)cc2c2c1COC2 (racemic) ?
[out] 62

[in] Query IC50 on HCT116 MTAP null cells for CC1(C)CN(C(=O)c2cc3c4c(c(N)nc3cc2F)COC4)C[C@H]1c1ccc(F)cc1 (single isomer, unassigned)
[out] 71

[in] What IC50 appears in the records for this compound with HCT116 MTAP null cells? Nc1nc2ccc(C(=O)N3CCOC[C@@H]3c3ccc(OC(F)(F)F)cc3)cc2c2c1COC2
[out] 91

[in] For HCT116 MTAP null cells, provide IC50 of C[C@H]1OCc2c1c(N)nc1ccc(C(=O)N3CCOC[C@H]3c3ccc(F)c(OC(F)(F)F)c3)cc21 (racemic) please.
[out] 442

###

- Tested on: HCT116 MTAP null cells
- method.summary: HCT116 MTAP null cell line proliferation (CellTiter-Glo cell viability, 6 days)
- Assay type: cell-based
- particulars: HCT116-MTAP null, 144 h, HCT116 MTAP null cells, 6 days of treatment, CellTiter-Glo cell viability; read-out: HCT-116 MTAP null IC50
experimental.endpoint: IC50 (nM)
I only need the number, in nM, no unit after it.

Sample records with IC50:
| molecule | tgt | scale.unit | IC50 |
| --- | --- | --- | --- |
| CCOc1ccc([C@@H]2COC[C@H](C)N2C(=O)c2cc3c4c(c(N)nc3cn2)COC4)nn1 (racemic) | HCT116 MTAP null cells | nM | 101 |
| C[C@H]1OCc2c1c(N)nc1ccc(C(=O)N3CC[C@](O)(c4ccc(C(F)(F)F)cc4)C3)cc21 | HCT116 MTAP null cells | nM | 251 |
| Cc1cc2nc(N)c3cnn(C)c3c2cc1C(=O)N1CCOC[C@@H]1c1ccc(C(F)(F)F)cc1 | HCT116 MTAP null cells | nM | 22 |

[in] Param item = CCOc1ccc([C@@H]2COC[C@H](C)N2C(=O)c2cc3c4c(c(N)nc3cc2Cl)COC4)nn1 (racemic) ; retrieve measured IC50.
[out] 6

###

- Tested on: HCT116 MTAP null cells
- method.summary: HCT116 MTAP null cell line proliferation (CellTiter-Glo cell viability, 6 days)
- Assay type: cell-based
- particulars: HCT116-MTAP null, 144 h, HCT116 MTAP null cells, 6 days of treatment, CellTiter-Glo cell viability; read-out: HCT-116 MTAP null IC50
experimental.endpoint: pIC50
Hey, just a heads up that pIC50 is the negative log base 10 of the concentration in molar.

| molecule | pIC50 |
| --- | --- |
| CC1(C)CN(C(=O)c2ccc3nc(N)c4c(c3c2)COC4)[C@@H](c2ccc(C(F)(F)F)cn2)CO1 (single isomer, unassigned) | 7.00 |
| Cn1ncc2c(N)nc3cc(F)c(C(=O)N4CCOC[C@@H]4c4ccc(C(F)(F)F)nn4)cc3c21 | 7.38 |
| CCOc1ccc([C@H]2COC[C@@H](C)N2C(=O)c2cc3c4c(c(N)nc3cn2)COC4)nn1 | 7.19 |
| C[C@H]1OCc2c1c(N)nc1ccc(C(=O)N3CC[C@](F)(c4ccc(C(F)(F)F)cc4)C3)cc21 | 6.06 |
| Nc1nc2cnc(C(=O)N3CCOC[C@@H]3c3ccc(C(F)(F)C(F)(F)F)cc3)cc2c2c1COC2 | 7.37 |

[in] Using the record for Nc1nc2ccc(C(=O)N3CCOC[C@@H]3c3ccc(OC(F)(F)F)cc3)cc2c2c1COCC2 , report its pIC50.
[out] 6.18

[in] Can you share its pIC50? I mean this molecule: Nc1nc2cnc(C(=O)N3CCOC[C@@H]3c3cnc(C(F)(F)F)cn3)cc2c2c1COC2 (single isomer, unassigned)
[out] 5.74

[in] So what's the measured pIC50 for this one? Cc1nc2nc(N)c3cnn(C)c3c2cc1C(=O)N1CCOC[C@@H]1c1ccc(C(F)(F)F)cc1
[out] 7.14

[in] Given the molecule C[C@@H]1COC[C@H](c2ccc(OCCC(F)(F)F)nn2)N1C(=O)c1cc2c3c(c(N)nc2cn1)COC3 , what is its reported pIC50?
[out] 7.55

###

- System: HCT116 MTAP null cells
- method.summary: HCT116 MTAP null cell line proliferation (CellTiter-Glo cell viability, 6 days)
- Format: cell-based
- particulars: HCT116-MTAP null, 144 h, HCT116 MTAP null cells, 6 days of treatment, CellTiter-Glo cell viability; read-out: HCT-116 MTAP null IC50
pIC50: −log10 of the molar value.
Recorded pIC50 by entry

Worked examples, 2 molecules total:
| molecule | tgt | experimental.endpoint | val |
| --- | --- | --- | --- |
| Nc1nc2ccc(C(=O)N3CCOC[C@@H]3c3ccc(C(F)(F)F)cc3)cc2c2ccsc12 (single isomer, unassigned) [Example 488] | HCT116 MTAP null cells | pIC50 | < 6.00 |
| Nc1nc2ccc(C(=O)N3CCOCC3c3ncccn3)cc2c2c1COC2 (stereo not drawn) [Example 300] | HCT116 MTAP null cells | pIC50 | < 6.00 |

[in] Param readout = pIC50; param system = HCT116 MTAP null cells; param query = Nc1nc2ccc(C(=O)N3CCOC[C@H]3c3ccc(C(F)(F)F)cc3)cc2c2ccsc12 (single isomer, unassigned) [Example 487] ; response: value
[out] < 6.00

###

- Tested on: HCT116 MTAP null cells
- method.summary: HCT116 MTAP null cell line proliferation (CellTiter-Glo cell viability, 6 days)
- Format: cell-based
- particulars: HCT116-MTAP null, 144 h, HCT116 MTAP null cells, 6 days of treatment, CellTiter-Glo cell viability; read-out: HCT-116 MTAP null IC50
pIC50: −log10 of the molar value.
Listed below: pIC50 values for each entry.

Illustrative cases are given below, each with its answer.
| compound | pIC50 |
| --- | --- |
| Nc1nc2cnc(C(=O)N3CCOC[C@H]3c3cnc(C(F)(F)F)nc3)cc2c2c1COC2 (single isomer, unassigned) [Example 611] | < 6.00 |
| Nc1nc2ccc(C(=O)N3CCCC[C@@H]3c3ccc(C(F)(F)F)cc3)cc2c2ccsc12 (single isomer, unassigned) [Example 490] | < 6.00 |
| Nc1nc2ccc(C(=O)N3CCOC[C@H]3c3ccc(C(F)(F)F)nc3)cc2c2c1COC2 (single isomer, unassigned) [Example 610] | < 6.00 |
| Nc1nc2ccc(C(=O)N3CCOC[C@H]3c3ccc(Cl)cc3)cc2c2c1COC2 (single isomer, unassigned) [Example 580] | < 6.00 |

Okay, next one:
[in] What does the data say about its pIC50? Entry: C[C@H]1COC[C@@H](c2ccc(OC(F)(F)F)cc2)N1C(=O)c1ccc2nc(N)c3c(c2c1)COC3 (single isomer, unassigned) [Example 587]
[out] < 6.00
